molecular target: Grb2 SH2 (UniProt P62993); test: SH2 binding enrichment of the phosphorylated peptide, bacterial display (enrichment ratio); higher = better substrate or ligand; peptides without Tyr show the background;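 also: peptide library displayed on the E. coli surface as eCPX fusions, selected cells deep-sequenced, score is each peptide's frequency after selection divided by its frequency in the input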
Sequence (P62993 whole entry, looked up, the tested form may be a part): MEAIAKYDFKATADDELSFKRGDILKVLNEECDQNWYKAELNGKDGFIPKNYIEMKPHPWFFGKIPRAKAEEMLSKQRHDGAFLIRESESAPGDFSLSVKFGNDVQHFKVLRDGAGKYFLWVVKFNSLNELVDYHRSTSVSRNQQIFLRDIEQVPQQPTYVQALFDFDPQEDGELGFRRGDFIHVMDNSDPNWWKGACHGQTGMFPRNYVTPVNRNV
Kindly state SH2 binding enrichment for each of the entries shown.
# respond with the number and nothing more

[ask] SH2 binding enrichment lookup needed for HHTDECEFDEL [TGM1_Y134_Y134C_YF] , thanks.
[reply] 1.12

[ask] # get_value(readout='SH2 binding enrichment', item= PRSRSYFSTSI [REPS2_Y462_S463F] )
[reply] 1.08

[ask] Could you share which SH2 binding enrichment value was measured for RRGLLYDSDEE [MCM2_Y137] ?
[reply] 0.661

[ask] Given the entry NARGLYYKLHN [GATA2_Y376_C373R] , report its measured SH2 binding enrichment.
[reply] 1.02

[ask] Request the reported SH2 binding enrichment associated with EDKFMYSEFPQ [PTEN_Y240_F241S]
[reply] 0.951

[ask] Can you share its SH2 binding enrichment? I mean this sequence: KFACSYTPVKA [FLNB_Y708_T703K_YF]
[reply] 0.862

[ask] For EYFENYIEELK [PARP4_Y218] , what is its reported SH2 binding enrichment?
[reply] 0.657

[ask] Dear colleague, I am looking for the recorded SH2 binding enrichment of the following sequence: CNSFRYGGGGG [NPPA_Y151]
[reply] 0.692

[ask] May I ask what SH2 binding enrichment has been recorded for GTGTAYLCGVK [ALPL_Y117_A114G] ?
[reply] 0.902

[ask] Data request, read-out SH2 binding enrichment, for GGMTEYKLVVV [KRAS_Y4]
[reply] 0.985

[ask] What SH2 binding enrichment value was documented for this sequence, ALAHEYHGGGG [HBB_Y146_K145E] ?
[reply] 0.776

[ask] Given the entry KVVNEYVTKGQ [MYH7_Y410_G407V] , report its measured SH2 binding enrichment.
[reply] 0.857

[ask] # get_value(readout='SH2 binding enrichment', item= TEQDPYNSIVR [MMUT_Y364_N366S] )
[reply] 0.952

[ask] Give its SH2 binding enrichment value. Item: RNFDTYTAGLS [RHBDD1_Y264_YF]
[reply] 0.664

[ask] Give the measured SH2 binding enrichment of AKYLGYPPPEI [KDR_Y357] .
[reply] 0.831

[ask] # SH2 binding enrichment lookup, item VTRANYFIRDE [GNAS_Y339_K338N]
[reply] 0.984

[ask] Requested read-out: SH2 binding enrichment. Entry: SISLKYEGRVY [ABL1_Y167_R166K]
[reply] 0.814

[ask] Which SH2 binding enrichment is reported for this sequence? LEKRAYICAHP [ACAD9_Y611]
[reply] 0.8

[ask] Given the entry RGRKVYLEDGF [PRIM2_Y201] , report its measured SH2 binding enrichment.
[reply] 1

[ask] Item AHAGEYGVEAL [HBA1_Y25_A27V] has what recorded SH2 binding enrichment?
[reply] 0.872

[ask] Which SH2 binding enrichment value is on record for TDGIAYEFRVI ?
[reply] 0.753

[ask] Using the record for ECKHLYSRKEG [PTPN11_Y263_L261H] , report its SH2 binding enrichment.
[reply] 0.995

[ask] Value lookup for SH2 binding enrichment; key = EEGRVYVFHLS [ITGAE_Y549_R552H_YF]
[reply] 0.888

[ask] So what does the record say about SH2 binding enrichment for RSAGKYDVFFI [MECP2_Y120_L124F_YF] ?
[reply] 1.28

[ask] Which SH2 binding enrichment value belongs to SHLSAFPALEG [CD5_Y465_Y465F] ?
[reply] 0.734

[ask] Suppose we examine the sequence GAVGNYSGGLA [MGMT_Y158] ; what SH2 binding enrichment value has been reported?
[reply] 0.551

[ask] Please give the measured SH2 binding enrichment for this sequence: EVEFQYPFRLH [SYP_Y73_E72Q]
[reply] 0.913

[ask] Would you mind telling me what SH2 binding enrichment value was observed for GSSEGYLHMVH [NIPBL_Y247_D246G] ?
[reply] 0.794

[ask] // SH2 binding enrichment lookup, key: ISDNACQFMLT [MYH7_Y162_Y162C_YF]
[reply] 0.692

[ask] Returns the measured SH2 binding enrichment for the input sequence. Input: TDTAAYEERLR [SPTB_Y474_V478L]
[reply] 0.849

[ask] Item RAYRRYLLKQK [SCN2A_Y1919] has what recorded SH2 binding enrichment?
[reply] 0.61

[ask] Give its SH2 binding enrichment value. Item: ISITPYPAILH [IFT80_Y588]
[reply] 0.616

[ask] Endpoint output: SH2 binding enrichment of VGRVGYVSGWG [HP_Y280] . Value?
[reply] 0.809

[ask] Would you mind telling me what SH2 binding enrichment value was observed for LAETSYVIVLE [MAGEA1_Y276_K278I] ?
[reply] 0.641

[ask] Could you tell me which SH2 binding enrichment is on file for CTTIHFNYMCN [TP53_Y234_Y234F] ?
[reply] 1.83

[ask] Name the reported SH2 binding enrichment value associated with the sequence FECKWYIPLTD [BCR_Y756_D752E_YF]
[reply] 0.685

[ask] Quick one: SH2 binding enrichment for SPPEVYAIMRG [NTRK1_Y757_C752S] ?
[reply] 0.711

[ask] If you can, please state the reported SH2 binding enrichment value of ILNANCMAKRL [GLDC_Y839_Y839C] .
[reply] 0.802

[ask] What does the record list as SH2 binding enrichment for YCRIMYDIFPF [INTS13_Y67] ?
[reply] 1.01

[ask] Data request, read-out SH2 binding enrichment, for FIGRIYLFLTK [GARS1_Y414_YF]
[reply] 1.57

[ask] Endpoint output: SH2 binding enrichment of GSERRYSREGG [PTPRN2_Y139] . Value?
[reply] 0.678

[ask] Name the reported SH2 binding enrichment value associated with the sequence NDDDVYRSLEE [VAV2_Y142]
[reply] 1

[ask] Report SH2 binding enrichment for NREGVYRVFAP [TGFBI_Y537_T538R] please.
[reply] 0.755

[ask] So what does the record say about SH2 binding enrichment for TKVVHYRKWIK [KLK2_Y249] ?
[reply] 1.12

[ask] Find the recorded SH2 binding enrichment belonging to DTQNSYWCATS [TSC1_Y304_G305W] and report it.
[reply] 1.01

[ask] What value of measured SH2 binding enrichment is listed for FQNGMYGLHQD [SGSH_Y89_H84Y_YF] ?
[reply] 0.748

[ask] Find the recorded SH2 binding enrichment belonging to DKTGEYPVPLT [ACADM_Y73_I78T] and report it.
[reply] 0.924

[ask] What measured SH2 binding enrichment goes with LKGQVYILGGE [ASS1_Y359_R363G] ?
[reply] 0.952

[ask] Dear colleague, I am looking for the recorded SH2 binding enrichment of the following sequence: HGTKVYIDPFT [EPHB4_Y590]
[reply] 1.21

[ask] // returns reported SH2 binding enrichment for input VQQVIYATRAL [MYH7_Y422_G425R]
[reply] 0.652

[ask] For the sequence APSEFYDGDHD [HDAC3_Y414_N411S] , what SH2 binding enrichment is on record?
[reply] 1.1

[ask] Using the record for TGVWDYIHVVD [GALE_Y241_R239W] , report its SH2 binding enrichment.
[reply] 0.746

The origin of these recorded values is the supplement of paper PMC10065799.
